experiment: doxorubicin toxicity protection in MRP-1 cells – H69AR cells, CellTiter-Glo, duplicate, MRP-1 activator project, pilot screen (AID 807); conditions: H69AR viability with doxorubicin, CellTiter-Glo luminescence; at 10 µM; stronger effect = higher value;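 also: compound pretreatment 18-22 h then 72 h combined with doxorubicin; 0% = doxorubicin alone and 100% = vehicle without doxorubicin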
measured-endpoint: viability increase (%)
Answers are plain numbers, in %.

Quick request: viability increase for each listed item, please.
1. CCOC(=O)c1sc(/N=C/N(C)C)c(C(=O)OCC)c1C
2. COc1ccc(-c2cc(C(F)(F)F)n3nc(C)cc3n2)cc1
3. COc1ccc(C(C)N2CC34C=CC(O3)C(C(=O)OCC(C)C)C4C2=O)cc1 (stereo unspecified)
4. COc1cccc(-n2c(SCC(=O)N3CCCC3)nc3c([nH]c4ccccc43)c2=O)c1
5. CC(C)C(=O)Nc1ccc(-c2nc3cccnc3o2)cc1

Reply:
1: -3.82; 2: 0.18; 3: -2.51; 4: -6.23; 5: 1.32

The reported viability increase of the compound CNC(=O)c1ccc2snnc2c1 was -1.54

---

test: S. cerevisiae growth inhibition in permissive medium (OD615), pilot counter-assay for S. cerevisiae lifespan shortening project, permissive growth control (AID 705); settings: OD615, 24 h, at 10 µM, stronger effect = higher value
What growth inhibition was measured for each of the following?
Numbers only, in %.

As a guide, the following entries are already answered.
* Cn1cccc1Cc1nnc(SCC(=O)N2CCCCCC2)n1-c1ccc(F)cc1 | 0.935
* CCCCCOC(=O)NCC(O)c1ccccc1 (stereo not drawn) | -12.5
* O=C(CCNS(=O)(=O)c1cccc2nsnc12)Nc1ccc2c(c1)OCCO2 | -7.75
* COC(=O)c1ccc(Nc2ncnc3c2cnn3-c2cccc(C)c2)cc1 | -13
* CCOc1ccc(-n2nnc3c(=O)n(CC(=O)c4ccccc4)cnc32)cc1 | -2.31

Provide growth inhibition values for the following items, in order.
1. O=C1O/C(=C\C(=O)N2CCOCC2)c2ccccc21
2. CCOCCCNC(=O)C(c1ccc(C)cc1)N(Cc1ccc2c(c1)OCO2)C(=O)c1cnccn1 (stereo not drawn)
3. Cc1noc(C)c1S(=O)(=O)N(CC(=O)N1CCc2ccccc21)c1ccc(C(C)C)cc1
4. COc1cc(-c2nc(-c3cccc(C)c3)no2)cc(OC)c1OC
5. Clc1ccc(SCCCCn2ccnc2)cc1
6. Nc1cc(N)cc(-c2nc3ccccc3o2)c1
7. COc1ccc2[nH]c(C)c(CCN3C(=O)OC(C)(C)C3(C)O)c2c1 (stereo not drawn)
8. Cc1cccc(OCCNC(=O)c2ncn[nH]2)c1

Reply:
[-2.53, -5.46, -4.56, -5.34, 1.02, 1.61, 4.92, -12.5]

---

test: MRP1 drug-resistance reversers in H69AR cells – cell-based, doxorubicin co-treatment, pilot screen (AID 601); conditions: H69AR cells + 2 uM doxorubicin, CellTiter-Glo, 72 h; at 10 µM; stronger effect = higher value
measured-endpoint: differential viability (reversal) (%)
One number for each entry, in %.

• O=C(Cn1ncc2c1-c1ccccc1OC2)N1CCN(c2ccccn2)CC1 = 4.26
• CC(C)(O)C#Cc1ccc(C(=O)N2CCN(C(=O)c3ccco3)CC2)cc1 = 8.95
• O=C(NCc1cccs1)C(Cc1ccccc1)n1cccc1 (stereo unspecified) = 8.57
• C=CCSc1nc2sc(C)c(C)c2c(=O)[nH]1 = 9.9
• COc1cccc(NC(=O)CSc2nnc(Cc3cccn3C)n2-c2ccc(F)cc2)c1 = -8.06

Switching to the query record.
The value of differential viability (reversal) measured for the compound CC(C)OC(=O)c1ccc(OC(=O)c2cccnc2)cc1 turned out to be 11.3

---

test: RAM signaling pathway blockade in yeast – S. cerevisiae, Pdr1DBD-CYC8 efflux-inhibited sensitized strain, primary screen (AID 1298);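 also: 0% = DMSO untreated cells without growth and 100% = 10 µM 1-NA-PP1 full growth; higher means more yeast growth rescued from 5-FOA killing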; settings: S. cerevisiae cbk1-as DSE1-URA3 strain, 5-FOA growth OD615, 2 d; at 50 µM; stronger effect = higher value
Active and inactive are the calls of the source.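 Rule for the calls: active = RAM network inhibition above 8.4% in each of two replicates, 3 SD over the compound average; inconclusive = above 8.4% inhibition in only one replicate; inactive = 8.4% inhibition or less in each replicate.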
measured-endpoint: RAM network inhibition

• CCOC(=O)c1cccc(NC(=O)CNC(=O)C2CCCCC2)c1 = -0.72% (inactive)
• Cc1cccc(-n2ncc3c(NCc4cccnc4)ncnc32)c1 = 2.13% (inactive)
• CSc1ccccc1NC(=O)c1cnc2n(c1=O)CCS2 = -0.78% (inactive)
• CN1CCC(NC(=O)c2cccs2)CC1 = 1.18% (inactive)
• NC(=O)c1ccc(N2CCCCC2)c(N2C(=O)C3C4C=CC(C4)C3C2=O)c1 (configuration not stated) = 3.75% (inactive)
• Cn1c(Cn2c(=O)sc3ccccc32)nnc1SCC(=O)Nc1ccccc1 = 13% (inactive)
• CCCSc1nc2c(cnn2-c2ccccc2)c(=O)[nH]1 = -0.83% (inactive)
• c1ccc2c(c1)ccc1nnc(-c3ccc4c(c3)OCO4)n12 = 1.81% (inactive)

For each entry beneath this line, provide reported RAM network inhibition.
1. Cn1cccc1Cc1nnc(SCC(=O)Nc2nccs2)n1CCc1ccccc1
2. COc1ccc(C2CC(c3ccc(OC)cc3)n3nc(N)nc3N2)cc1 (configuration not stated)
3. CC1(C)Cc2ccccc2C(N)=C1C#N
4. COCCN(CCOC)c1ncnc2c1cnn2-c1ccccc1

Reply:
1. 2.48% (inactive)
2. 3.07% (inactive)
3. 0.69% (inactive)
4. 3.39% (inactive)

---

assay: RAM signaling pathway blockade in yeast – S. cerevisiae, Pdr1DBD-CYC8 efflux-inhibited sensitized strain, primary screen (AID 1298);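 also: 0% = DMSO untreated cells without growth and 100% = 10 µM 1-NA-PP1 full growth; higher means more yeast growth rescued from 5-FOA killing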; conditions: S. cerevisiae cbk1-as DSE1-URA3 strain, 5-FOA growth OD615, 2 d; at 50 µM; stronger effect = higher value
Assignment: determine reported RAM network inhibition for the given compounds.
Answers are plain numbers, in %.

Examples from the recorded data:
- CCOC(=O)c1ccc(NC(=O)C2C3C=CC(C3)C2C(=O)O)cc1 (stereo unspecified): 1.09
- Nc1nc(NC(=O)c2ccco2)nn1-c1ccccc1: 5.17
- COc1ccc(OCc2nnc3n2N=C(c2ccc(C)cc2)CS3)cc1: 2.58

Please give RAM network inhibition for each item listed below.
1. Cc1cc(C)cc(NC(=O)CSc2nnc(Cn3c(=O)sc4ccccc43)n2C)c1
2. COc1ccc(NC(=O)Nc2ccc(N3CCCC3=O)cc2)cc1OC

Reply:
[1.37, 0.87]

Look at each compound and report its RAM network inhibition.
1. O=C(CSc1cn(Cc2ccccc2)c2ccccc12)Nc1nccs1
2. COc1ccc(CCNC(=O)CCS(=O)(=O)c2cccc3nsnc23)cc1OC

Reply:
1. 0.83
2. 3.1

---

assay: yeast transport mutant growth inhibition pilot in 384-well plates, post-Golgi transport modulator project (AID 636); details: absorbance 615 nm, about 18 h, stronger effect = higher value
measured-endpoint: inhibition (%)
Answers are plain numbers, in %.

// for each compound in input: emit inhibition
1. COc1ccc(NC(=O)CN(c2cc(C)cc(C)c2)S(=O)(=O)c2c(C)noc2C)cc1OC
2. O=C(NCCCN1CCOCC1)c1cc(-c2ccc(O)cc2)on1
3. NC(=O)C1CCN(C(=O)c2cc3n(n2)C(C(F)(F)F)CC(c2ccco2)N3)CC1 (stereo unspecified)
4. O=C(COc1ccc(=O)n(-c2ccccc2)n1)Nc1ccccc1
5. Clc1cccc(N2CCN(Cc3nc(-c4ccccc4)no3)CC2)c1
6. CCOc1ccc(N(C(C)C(=O)NC2CCCCCC2)S(C)(=O)=O)cc1 (stereo unspecified)

Reply:
0.26
-6.4
-0.93
-4.4
0.53
-2.69

---

assay: S. cerevisiae growth inhibition in permissive medium (OD615), pilot counter-assay for S. cerevisiae lifespan shortening project, permissive growth control (AID 705); details: OD615, 24 h, at 10 µM, stronger effect = higher value
For each entry below, report its growth inhibition value.
Give bare numbers, in %.

In the examples that follow, each entry is paired with its recorded growth inhibition.
* CC1CCC(NC(=O)Cn2ncc3ccccc32)CC1 (centres undefined) | -9.46
* COC(=O)C1=C(C)NC(C)=C(C(=O)OC)C1C1CC=CCC1 (centres undefined) | -3.42
* O=C(C1CCN(c2nnc(-n3cccc3)s2)CC1)N1CCOCC1 | -0.63
* CC(C)=CC(=O)OCC(=O)NC(=O)NC(C)(C)C | 1.02
* CCCOc1ccc(NC2=CC(=O)CC(C)(C)C2)cc1 | -2.65
* CCOC(=O)N1CCC(N2C(=O)c3ccc(C(=O)Nc4ccc(F)cc4F)cc3C2=O)CC1 | -2.61
* Cc1oc(-c2ccc(Cl)cc2)nc1CS(=O)CC(=O)NCCN1CCCC1 (centres undefined) | -4.58
* Cc1ccc(N(C)C(=O)N2CCN(S(=O)(=O)c3ccc(C)cc3)CC2)cc1 | -1.22

# batch: return growth inhibition for each of the 4 compounds below
1. CCOC(=O)c1cc2c(=O)n3ccccc3nc2n(CC2CCCO2)c1=NC(C)=O (centres undefined)
2. COc1cc(C(O)c2nc3ccccc3n2C)cc(OC)c1OC (centres undefined)
3. Cc1ccc(C(=O)OCC(=O)Nc2ccc3c(c2)OCO3)o1
4. CC(=O)NCc1cn2c(C)csc2n1

Reply:
1. -22.2
2. -7.22
3. -4.63
4. -16.9

# batch size: 7; output growth inhibition per entry
1. c1ccc(C(Cc2nc(-c3ccccn3)no2)c2ccccc2)cc1
2. CC(C)OC(=O)c1ccc(OC(=O)c2cccnc2)cc1
3. COc1cccc(CNC(=O)Cn2c(=O)oc3ccccc32)c1OC
4. COc1cccc2sc(Nc3nnc(-c4ccccc4Cl)o3)nc12
5. COc1cccc(-c2cc(C(=O)N3CCCCCC3)no2)c1
6. CCC(=O)Nc1sc2c(c1C(N)=O)CCN(C(C)=O)C2
7. Nc1nc2n(n1)C(c1cccc(Br)c1)CC(c1ccccc1)N2 (centres undefined)

Reply:
-9.91
2.51
-9.48
-29.8
-12.5
-12.9
-6.41
